- method summary: Genotoxicity in Salmonella typhimurium TA1535 harboring pSK1002 assessed as umu gene induction at 0.016 mg/ml in absence of Sprague-Dawley rat liver S9 fraction metabolic activation by SOS/umu assay relative to control
- Format: toxicity
- test parameters: salmonella enterica subsp. enterica serovar typhimurium, read-out: FC
property name: fold induction at 0.016 mg/ml
I only need the number, thanks.

Task item: Entry under review: O=C(CCN1CCN(c2ccc(C(F)(F)F)cc2)CC1)c1ccc(O)cc1 . Reported fold induction at 0.016 mg/ml?
Reply: 0.74

Task item: Entry under review: O=C(CCN1CCN(c2ccc(Cl)cc2)CC1)c1ccc(O)cc1 . Reported fold induction at 0.016 mg/ml?
Reply: 0.66

* * *

Task for the reader: assign each of the following compounds its reported selectivity ratio.
- method summary: Selectivity index, ratio of IC50 for African green monkey Vero cells to IC50 for Trypanosoma cruzi MHOM/Pe/2011/Arequipa; DTU 5 trypomastigote forms
- Type: toxicity
- test parameters: read-out: Selectivity Index
I only need the number, thanks.

Task item: Entry under review: COc1ccc(C(=O)CCNc2ccc(F)cc2)cc1 . Reported selectivity ratio?
Reply: 64.8

Task item: Entry under review: O=C(CCN1CCN(c2ccc(C(F)(F)F)cc2)CC1)c1ccc(O)cc1 . Reported selectivity ratio?
Reply: 123

Task item: Entry under review: COc1ccc(C(=O)CCNc2ccc(Cl)cc2)cc1 . Reported selectivity ratio?
Reply: 11.2

Task item: Entry under review: O=C(CCN1CCN(c2ccc(Cl)cc2)CC1)c1ccc(O)cc1 . Reported selectivity ratio?
Reply: 141

Task item: Entry under review: COc1ccc(C(=O)CCNCCc2ccc(C(F)(F)F)cc2)cc1 . Reported selectivity ratio?
Reply: 25

* * *

- method summary: Genotoxicity in Salmonella typhimurium TA1535 harboring pSK1002 assessed as survival at 0.25 mg/ml in presence of Sprague-Dawley rat liver S9 fraction metabolic activation by SOS/umu assay relative to control
- Assay type: toxicity, subcellular
- test parameters: salmonella enterica subsp. enterica serovar typhimurium, read-out: Survival
property name: viability at 0.25 mg/ml (%)
Numeric only. Scale: %

Task item: Entry under review: O=C(CCN1CCN(c2ccc(C(F)(F)F)cc2)CC1)c1ccc(O)cc1 . Reported viability at 0.25 mg/ml?
Reply: 140

Task item: Entry under review: O=C(CCN1CCN(c2ccc(Cl)cc2)CC1)c1ccc(O)cc1 . Reported viability at 0.25 mg/ml?
Reply: 138

* * *

- method summary: Genotoxicity in Salmonella typhimurium TA1535 harboring pSK1002 assessed as umu gene induction at 0.002 mg/ml in presence of Sprague-Dawley rat liver S9 fraction metabolic activation by SOS/umu assay relative to control
- Assay type: toxicity, subcellular
- test parameters: salmonella enterica subsp. enterica serovar typhimurium, read-out: FC
Task for the reader: assign each of the following compounds its reported fold induction at 0.002 mg/ml.

Task item: Entry under review: O=C(CCN1CCN(c2ccc(Cl)cc2)CC1)c1ccc(O)cc1 . Reported fold induction at 0.002 mg/ml?
Reply: 0.74

Task item: Entry under review: O=C(CCN1CCN(c2ccc(C(F)(F)F)cc2)CC1)c1ccc(O)cc1 . Reported fold induction at 0.002 mg/ml?
Reply: 0.89

* * *

- method summary: Genotoxicity in Salmonella typhimurium TA1535 harboring pSK1002 assessed as umu gene induction at 0.063 mg/ml in absence of Sprague-Dawley rat liver S9 fraction metabolic activation by SOS/umu assay relative to control
- Assay type: toxicity
- test parameters: salmonella enterica subsp. enterica serovar typhimurium, read-out: FC
property name: fold induction at 0.063 mg/ml
I only need the number, thanks.

Task item: Entry under review: O=C(CCN1CCN(c2ccc(C(F)(F)F)cc2)CC1)c1ccc(O)cc1 . Reported fold induction at 0.063 mg/ml?
Reply: 0.67

Task item: Entry under review: O=C(CCN1CCN(c2ccc(Cl)cc2)CC1)c1ccc(O)cc1 . Reported fold induction at 0.063 mg/ml?
Reply: 0.71

* * *

- method summary: Selectivity index, ratio of IC50 for African green monkey Vero cells to IC50 for Trypanosoma cruzi MHOM/Pe/2011/Arequipa;DTU 5
- Format: toxicity
- test parameters: read-out: Selectivity Index
Param label: returns rule met when selectivity ratio < 2, returns rule not met otherwise, including exact equality.

Task item: Problem: For the compound O=C(CCN1CCN(c2ccc([N+](=O)[O-])cc2)CC1)c1ccc(O)cc1 , is selectivity ratio under 2?
Reply: rule met

Task item: Problem: For the compound COc1ccc(C(=O)CCNCCc2ccc(C(F)(F)F)cc2)cc1 , is selectivity ratio under 2?
Reply: rule met

Task item: Problem: For the compound O=C(CCN1CCN(c2ccc(C(F)(F)F)cc2)CC1)c1ccc(O)cc1 , is selectivity ratio under 2?
Reply: rule not met

Task item: Problem: For the compound COc1ccc(C(=O)CCNCCc2ccc(Cl)cc2)cc1 , is selectivity ratio under 2?
Reply: rule met

Task item: Problem: For the compound COc1ccc(C(=O)CCNc2ccc(Cl)cc2)cc1 , is selectivity ratio under 2?
Reply: rule not met

Task item: Problem: For the compound COc1ccc(C(=O)CCNCCc2ccc(F)cc2)cc1 , is selectivity ratio under 2?
Reply: rule met

Task item: Problem: For the compound O=C(CCN1CCN(c2ccc(F)cc2)CC1)c1ccc(O)cc1 , is selectivity ratio under 2?
Reply: rule not met

Task item: Problem: For the compound O=C(CCN1CCN(c2ccc(Cl)cc2)CC1)c1ccc(O)cc1 , is selectivity ratio under 2?
Reply: rule not met

Task item: Problem: For the compound O=C(Cn1ccnc1[N+](=O)[O-])NCc1ccccc1 , is selectivity ratio under 2?
Reply: rule not met

Task item: Problem: For the compound COc1ccc(C(=O)CCNc2ccc(C(F)(F)F)cc2)cc1 , is selectivity ratio under 2?
Reply: rule met

Task item: Problem: For the compound COc1ccc(C(=O)CCNc2ccc(F)cc2)cc1 , is selectivity ratio under 2?
Reply: rule not met

* * *

- method summary: Genotoxicity in Salmonella typhimurium TA1535 harboring pSK1002 assessed as survival at 1 mg/ml in presence of Sprague-Dawley rat liver S9 fraction metabolic activation by SOS/umu assay relative to control
- Type: toxicity, subcellular
- test parameters: salmonella enterica subsp. enterica serovar typhimurium, read-out: Survival
Task for the reader: assign each of the following molecules its reported viability at 1 mg/ml.

Task item: Entry under review: O=C(CCN1CCN(c2ccc(Cl)cc2)CC1)c1ccc(O)cc1 . Reported viability at 1 mg/ml?
Reply: 213%

Task item: Entry under review: O=C(CCN1CCN(c2ccc(C(F)(F)F)cc2)CC1)c1ccc(O)cc1 . Reported viability at 1 mg/ml?
Reply: 216%

* * *

Task for the reader: assign each of the following molecules its reported fold induction at 0.5 mg/ml.
- method summary: Genotoxicity in Salmonella typhimurium TA1535 harboring pSK1002 assessed as umu gene induction at 0.5 mg/ml in presence of Sprague-Dawley rat liver S9 fraction metabolic activation by SOS/umu assay relative to control
- Format: toxicity, subcellular
- test parameters: salmonella enterica subsp. enterica serovar typhimurium, read-out: FC

Task item: Entry under review: O=C(CCN1CCN(c2ccc(C(F)(F)F)cc2)CC1)c1ccc(O)cc1 . Reported fold induction at 0.5 mg/ml?
Reply: 0.74

Task item: Entry under review: O=C(CCN1CCN(c2ccc(Cl)cc2)CC1)c1ccc(O)cc1 . Reported fold induction at 0.5 mg/ml?
Reply: 0.46

* * *

- method summary: Selectivity index, ratio of IC50 for African green monkey Vero cells to IC50 for Trypanosoma cruzi MHOM/Pe/2011/Arequipa; DTU 5 amastigote forms
- Assay type: toxicity
- test parameters: read-out: Selectivity Index
Task for the reader: assign each of the following compounds its reported selectivity ratio.
I only need the number, thanks.

Task item: Entry under review: COc1ccc(C(=O)CCNc2ccc(F)cc2)cc1 . Reported selectivity ratio?
Reply: 27.6

Task item: Entry under review: COc1ccc(C(=O)CCNc2ccc(Cl)cc2)cc1 . Reported selectivity ratio?
Reply: 19.9

Task item: Entry under review: COc1ccc(C(=O)CCNCCc2ccc(C(F)(F)F)cc2)cc1 . Reported selectivity ratio?
Reply: 10

Task item: Entry under review: O=C(CCN1CCN(c2ccc(Cl)cc2)CC1)c1ccc(O)cc1 . Reported selectivity ratio?
Reply: 20.4

Task item: Entry under review: O=C(CCN1CCN(c2ccc(C(F)(F)F)cc2)CC1)c1ccc(O)cc1 . Reported selectivity ratio?
Reply: 17.4

* * *

Task for the reader: assign each of the following compounds its reported selectivity ratio.
- method summary: Selectivity index, ratio of IC50 for African green monkey Vero cells to IC50 for Trypanosoma cruzi TINF/CH/1956/Tulahuen;DTU 6
- Assay type: toxicity
- test parameters: read-out: Selectivity Index
I only need the number, thanks.

Task item: Entry under review: COc1ccc(C(=O)CCNCCc2ccc(F)cc2)cc1 . Reported selectivity ratio?
Reply: 3.3

Task item: Entry under review: COc1ccc(C(=O)CCNc2ccc(C(F)(F)F)cc2)cc1 . Reported selectivity ratio?
Reply: 1.3

Task item: Entry under review: COc1ccc(C(=O)CCNCCc2ccc(C(F)(F)F)cc2)cc1 . Reported selectivity ratio?
Reply: 6.9

Task item: Entry under review: O=C(CCN1CCN(c2ccc(F)cc2)CC1)c1ccc(O)cc1 . Reported selectivity ratio?
Reply: 3.9

Task item: Entry under review: COc1ccc(C(=O)CCNCCc2ccc(Cl)cc2)cc1 . Reported selectivity ratio?
Reply: 3.5

Task item: Entry under review: O=C(CCN1CCN(c2ccc([N+](=O)[O-])cc2)CC1)c1ccc(O)cc1 . Reported selectivity ratio?
Reply: 0.8

Task item: Entry under review: O=C(CCN1CCN(c2ccc(C(F)(F)F)cc2)CC1)c1ccc(O)cc1 . Reported selectivity ratio?
Reply: 7.2

Task item: Entry under review: COc1ccc(C(=O)CCNc2ccc(Cl)cc2)cc1 . Reported selectivity ratio?
Reply: 8.9

Task item: Entry under review: O=C(CCN1CCN(c2ccc(Cl)cc2)CC1)c1ccc(O)cc1 . Reported selectivity ratio?
Reply: 9.8

Task item: Entry under review: COc1ccc(C(=O)CCNc2ccc(F)cc2)cc1 . Reported selectivity ratio?
Reply: 9.3
